# Test system: HT29 colon
# Assay Notes: NCI tumour cell line growth inhibition, 48 h
Result Type: TGI (µM)
Numbers only, in µM.

{"Compound": "O=[N+]([O-])c1ccc(N2CCC(CCCC3CCN(c4ccc([N+](=O)[O-])cc4[N+](=O)[O-])CC3)CC2)c([N+](=O)[O-])c1", "TGI, µM": 22.2}

Batch request: TGI for each of the following compounds.
1. O=C1C(SCCO)=C(SCCO)C(=O)N1c1ccc(-c2ccccc2)cc1
2. COc1cccc(/C=C2\S/C(=N/Nc3nc(-c4ccc([N+](=O)[O-])cc4)cs3)NC2=O)c1O
3. COc1cc(OC)c2[nH]c3c(O)c(-c4c(C)cc5c([nH]c6c(OC)cc(OC)cc65)c4O)c(C)cc3c2c1
4. O=C1c2ccc3c4c(ccc(c24)C(=O)N1CCCNCc1ccccc1Cl)C(=O)N(CCCNCc1ccccc1Cl)C3=O
5. Cc1cccc(N/C(Sc2ccccc2)=C(/C(Cl)=C(Cl)Cl)[N+](=O)[O-])c1
6. CCOc1cc2c(c(OCC)c1O)CC[C@@H]1[C@@H]2CC[C@]2(C)[C@@H](O)CC[C@@H]12
7. CC(C)(C)c1[nH]nc2c1C(c1cc3ccccc3[nH]c1=O)Nc1cc(C(=O)OCc3ccccc3)ccc1N2 (stereo not given)

1. 3.5
2. 52.6
3. 14.8
4. 0.335
5. 43.1
6. 24.7
7. 6.52
